All figures here come from patent US20230064983A1.

- TESTED TARGET: Ba/F3-EGFR-V769_D770insASV cells (Homo sapiens, UniProt P00533, DUP767-769, cells depend on it)
- Sequence (P00533 with tags, fused parts or gaps DUP767-769): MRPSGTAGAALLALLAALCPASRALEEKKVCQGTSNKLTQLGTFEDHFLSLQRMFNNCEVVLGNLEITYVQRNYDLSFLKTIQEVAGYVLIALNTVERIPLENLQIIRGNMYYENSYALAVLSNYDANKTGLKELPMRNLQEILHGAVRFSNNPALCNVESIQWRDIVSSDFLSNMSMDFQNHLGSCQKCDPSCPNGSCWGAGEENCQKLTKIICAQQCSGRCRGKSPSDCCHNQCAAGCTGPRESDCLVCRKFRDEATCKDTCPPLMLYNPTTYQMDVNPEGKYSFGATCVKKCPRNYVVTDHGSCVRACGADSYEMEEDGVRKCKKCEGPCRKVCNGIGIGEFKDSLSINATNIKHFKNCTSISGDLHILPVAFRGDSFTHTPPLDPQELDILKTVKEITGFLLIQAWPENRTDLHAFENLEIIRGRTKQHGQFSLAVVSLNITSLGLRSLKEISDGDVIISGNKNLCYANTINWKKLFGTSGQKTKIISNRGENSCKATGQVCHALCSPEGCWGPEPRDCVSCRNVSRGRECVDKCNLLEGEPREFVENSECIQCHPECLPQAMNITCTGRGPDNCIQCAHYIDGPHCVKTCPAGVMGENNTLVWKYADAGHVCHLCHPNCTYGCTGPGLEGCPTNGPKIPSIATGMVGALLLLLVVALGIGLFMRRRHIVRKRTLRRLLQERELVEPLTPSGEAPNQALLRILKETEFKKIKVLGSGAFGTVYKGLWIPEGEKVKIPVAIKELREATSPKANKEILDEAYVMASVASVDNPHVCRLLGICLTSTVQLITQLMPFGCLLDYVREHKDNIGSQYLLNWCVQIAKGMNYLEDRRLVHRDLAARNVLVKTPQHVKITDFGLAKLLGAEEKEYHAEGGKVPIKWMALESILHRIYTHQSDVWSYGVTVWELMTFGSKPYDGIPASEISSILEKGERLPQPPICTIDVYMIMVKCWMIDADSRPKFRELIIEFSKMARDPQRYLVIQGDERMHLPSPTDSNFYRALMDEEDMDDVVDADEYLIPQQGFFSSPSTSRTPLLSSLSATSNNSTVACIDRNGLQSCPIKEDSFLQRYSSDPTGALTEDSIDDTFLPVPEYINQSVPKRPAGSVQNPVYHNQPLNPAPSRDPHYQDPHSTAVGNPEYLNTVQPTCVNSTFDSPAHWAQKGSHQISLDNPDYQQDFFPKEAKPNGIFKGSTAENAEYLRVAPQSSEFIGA
- TEST METHOD NOTES: Ba/F3 cell survival assay, EGFR V769_D770insASV
- Format: cell-based
- TEST PARAMETERS: EGFR Exon20 insertion mutations; Table 6; read-out: BA/F3 (ASV) IC50
METRIC NAME: GI50 (nM)
Numeric only. Scale: nM

IN: Supply measured GI50 of COc1c(Cl)cccc1Nc1c(-c2ccncc2OCC2COCCO2)[nH]c2c1C(=O)NCC2C (single isomer, unassigned) [Example 34] in your reply.
OUT: 30.2

IN: Supply measured GI50 of Cc1c(Cl)cccc1Nc1c(-c2ccncc2OCC2COCCO2)[nH]c2c1C(=O)NCC2C (single isomer, unassigned) [Example 67] in your reply.
OUT: 40.3

IN: Supply measured GI50 of COc1c(Cl)cccc1Nc1c(-c2ccncc2OC[C@@H]2CCCO2)[nH]c2c1C(=O)NC1(CC1)C2 [Example 113] in your reply.
OUT: 26

IN: Supply measured GI50 of COc1c(Cl)cccc1Nc1c(-c2ccncc2OCCC2CCCCO2)[nH]c2c1C(=O)N[C@H](C)C2 (single isomer, unassigned) [Example 87] in your reply.
OUT: 13.2

IN: Supply measured GI50 of COCC(C)Oc1cnccc1-c1[nH]c2c(c1Nc1cccc(Cl)c1OC)C(=O)N[C@@H]1CCC[C@H]21 (single isomer, unassigned) [Example 51] in your reply.
OUT: 12.8

IN: Supply measured GI50 of COc1c(Cl)cccc1Nc1c(-c2ccncc2OCCC(C)OC)[nH]c2c1C(=O)N[C@H](C)C2 (single isomer, unassigned) [Example 121] in your reply.
OUT: 10.1

---

- TESTED TARGET: EGFR with insertion SVD between D770 and N771 (mutEGFR D770_N771insSVD) (Homo sapiens, UniProt P00533, DUP768-770)
- Construct: amino acids R669 to A1210; made in house; host or cells: Sf9 insect cells (baculovirus)
- Sequence (P00533 other isoform, or with tags, fused parts or gaps DUP768-770): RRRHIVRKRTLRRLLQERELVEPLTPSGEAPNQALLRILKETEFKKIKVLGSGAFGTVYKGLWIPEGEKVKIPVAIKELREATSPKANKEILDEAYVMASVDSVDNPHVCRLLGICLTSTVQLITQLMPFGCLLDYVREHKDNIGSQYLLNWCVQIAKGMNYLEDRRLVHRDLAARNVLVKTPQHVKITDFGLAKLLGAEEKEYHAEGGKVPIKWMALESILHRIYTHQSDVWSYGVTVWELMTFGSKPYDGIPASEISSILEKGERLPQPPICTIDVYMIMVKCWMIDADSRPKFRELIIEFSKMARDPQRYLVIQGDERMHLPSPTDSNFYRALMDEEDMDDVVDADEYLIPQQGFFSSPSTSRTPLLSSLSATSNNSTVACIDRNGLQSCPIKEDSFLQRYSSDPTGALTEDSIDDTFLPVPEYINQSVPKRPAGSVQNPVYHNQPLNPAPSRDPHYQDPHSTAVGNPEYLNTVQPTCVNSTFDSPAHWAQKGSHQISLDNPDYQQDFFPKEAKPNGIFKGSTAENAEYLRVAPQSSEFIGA
- TEST METHOD NOTES: Exon20-Mutant-EGFR(D770_N771insSVD) kinase assay (TR-FRET)
- Format: biochemical
- TEST PARAMETERS: 2 mM ATP, Table 2
Label not satisfied if mutEGFR (D770_N771insSVD) kinase assay IC50 falls below 200 pM; label satisfied in every other case.

IN: Please check the record COc1c(Cl)cccc1Nc1c(-c2ccncc2OC[C@@H]2CCCO2)[nH]c2c1C(=O)NCC2CCO (single isomer, unassigned) [Example 18] and state if its mutEGFR (D770_N771insSVD) kinase assay IC50 is at or above 200 pM.
OUT: not satisfied

IN: Please check the record "COc1c(Cl)cccc1Nc1c(-c2ccncc2OC[C@@H]2CCCO2)[nH]c2c1C(=O)NC1(CCC1)C2" and state if its mutEGFR (D770_N771insSVD) kinase assay IC50 is at or above 200 pM.
OUT: satisfied

IN: Please check the record Cc1c(Cl)cccc1Nc1c(-c2ccncc2OC[C@@H]2CCCO2)[nH]c2c1C(=O)NCC2C (mixture of isomers) [Example 58] and state if its mutEGFR (D770_N771insSVD) kinase assay IC50 is at or above 200 pM.
OUT: not satisfied

IN: Please check the record "COc1c(Cl)cccc1Nc1c(-c2ccncc2OC[C@@H]2CN(C)CCO2)[nH]c2c1C(=O)N[C@H](C)C2" and state if its mutEGFR (D770_N771insSVD) kinase assay IC50 is at or above 200 pM.
OUT: not satisfied

IN: Please check the record "COc1c(Cl)cccc1Nc1c(-c2ccncc2OCC[C@@H]2CCCO2)[nH]c2c1C(=O)N[C@H](C)C2" and state if its mutEGFR (D770_N771insSVD) kinase assay IC50 is at or above 200 pM.
OUT: satisfied

IN: Please check the record COc1c(Cl)cccc1Nc1c(-c2ccncc2OC[C@@H]2CCCO2)[nH]c2c1C(=O)NCC2CC=C(F)F (single isomer, unassigned) [Example 101] and state if its mutEGFR (D770_N771insSVD) kinase assay IC50 is at or above 200 pM.
OUT: satisfied

IN: Please check the record COc1c(Cl)cccc1Nc1c(-c2ccncc2OCC2COC(C)(C)CO2)[nH]c2c1C(=O)NCC2C (single isomer, unassigned) [Example 96] and state if its mutEGFR (D770_N771insSVD) kinase assay IC50 is at or above 200 pM.
OUT: satisfied

IN: Please check the record COc1c(Cl)cccc1Nc1c(-c2ccncc2OC[C@@H]2CCCO2)[nH]c2c1C(=O)NCC2CCC(F)(F)F (single isomer, unassigned) [Example 98] and state if its mutEGFR (D770_N771insSVD) kinase assay IC50 is at or above 200 pM.
OUT: satisfied

IN: Please check the record COc1c(Cl)cccc1Nc1c(-c2ccncc2OCC(C)OC)[nH]c2c1C(=O)N[C@H](C)C2 (mixture of isomers) [Example 80] and state if its mutEGFR (D770_N771insSVD) kinase assay IC50 is at or above 200 pM.
OUT: not satisfied

IN: Please check the record COc1c(Cl)cccc1Nc1c(-c2ccncc2OCC2COC(C)(C)CO2)[nH]c2c1C(=O)NC1(CCC1)C2 (single isomer, unassigned) [Example 130] and state if its mutEGFR (D770_N771insSVD) kinase assay IC50 is at or above 200 pM.
OUT: satisfied

IN: Please check the record COc1c(Cl)cccc1Nc1c(-c2ccncc2OC[C@@H]2CCCO2)[nH]c2c1C(=O)NCC2C (mixture of isomers) [Example 30] and state if its mutEGFR (D770_N771insSVD) kinase assay IC50 is at or above 200 pM.
OUT: not satisfied

IN: Please check the record COc1c(Cl)cccc1Nc1c(-c2ccncc2OCC2COC(C)(C)CO2)[nH]c2c1C(=O)NC1(CC1)C2 (stereo not shown) [Example 132] and state if its mutEGFR (D770_N771insSVD) kinase assay IC50 is at or above 200 pM.
OUT: satisfied

IN: Please check the record COCC(C)Oc1cnccc1-c1[nH]c2c(c1Nc1cccc(Cl)c1OC)C(=O)N[C@@H]1CCC[C@H]21 (stereo partly shown) [Example 49] and state if its mutEGFR (D770_N771insSVD) kinase assay IC50 is at or above 200 pM.
OUT: satisfied
